test: physchem; conditions: pKa (I = 0.012 M, 50 vol % CH3CN)
observable: pKa

compound="O=S(=O)(O)CCN1CCOCC1 [MES monohydrate, 4-morpholine-ethanesulfonic acid]" observable=pKa endpoint_result=6.24
compound="O=C(O)CO [Glycolic Acid, glycolic acid]" observable=pKa endpoint_result=4.56
compound="NCCS(=O)(=O)O [Taurine, 2-aminoethanesulfonic acid]" observable=pKa endpoint_result=8.95

###

Catalogue of solubility at 4 h values
assay: solubility-pH by aqueous dilution method, 96-well UV; type: physicochemical; conditions: universal buffer solution, kinetic from dmso stock, 0.5% v/v DMSO, 4 h shaking, read-out: So^APP (apparent intrinsic solubility)
observable: solubility at 4 h

molecule=CN1C(C(=O)Nc2ccccn2)=C(O)c2ccccc2S1(=O)=O endpoint_result="10.5 µg/mL"
molecule=COC1=CC(=O)C[C@@H](C)[C@]12Oc1c(Cl)c(OC)cc(OC)c1C2=O endpoint_result="37.6 µg/mL"
molecule=CN(C)CCCN1c2ccccc2Sc2ccc(Cl)cc21 endpoint_result="19.4 µg/mL"
molecule=COc1ccc2c(c1)c(CC(=O)O)c(C)n2C(=O)c1ccc(Cl)cc1 endpoint_result="7.2 µg/mL"
molecule="Clc1ccc(COC(Cn2ccnc2)c2ccc(Cl)cc2Cl)c(Cl)c1 (centres unmarked)" endpoint_result="11.1 µg/mL"

###

assay: true aqueous intrinsic solubility corrected from pKa shifts; type: physicochemical; conditions: saturated pH-buffered aqueous solution (universal buffer), aqueous buffer, kinetic from dmso stock; from So^APP in 0.26% v/v DMSO, cosolvent method; read-out: corrected So (intrinsic solubility corrected for drug-DMSO/drug-aggregate effects)
observable: solubility (µg/mL)

molecule="Nc1ccc(/N=N/c2ccccc2)c(N)n1 [phenazopyridine]" observable=solubility endpoint_result=12.2

###

test: apparent pKa from fitted log S vs. pH curve; format: physicochemical; conditions: saturated solutions, pKa shift Δ = pKa^APP − pKa, DMSO-containing saturated solutions (FIG. 8); heading: pKa shift Δ = pKa^APP − pKa
observable: pKa shift Δ

test_smiles=CN(C)CCC=C1c2ccccc2CCc2ccccc21 endpoint_result="< 0"
test_smiles=CN1C(C(=O)Nc2ccccn2)=C(O)c2ccccc2S1(=O)=O endpoint_result=0.98
test_smiles=Nc1ccc(/N=N/c2ccccc2)c(N)n1 endpoint_result="≥ 0"

###

assay: apparent pKa from fitted log S vs. pH curve; assay type: physicochemical; conditions: saturated solutions, saturated solutions containing 0.26% v/v DMSO; read-out: apparent pKa (pKa^APP)
observable: pKa

test_smiles=Nc1ccc(/N=N/c2ccccc2)c(N)n1 endpoint_result=5.83

###

assay: apparent pKa from fitted log S vs. pH curve; format: physicochemical; conditions: saturated solutions, DMSO-containing saturated solutions (FIG. 8); read-out: pKa shift Δ = pKa^APP − pKa
observable: pKa shift Δ (apparent pKa minus true pKa)

compound="Clc1ccc(COC(Cn2ccnc2)c2ccc(Cl)cc2Cl)c(Cl)c1 (stereo not shown)" endpoint_result="< 0"
compound=O=C(O)c1ccc2ccccc2c1 endpoint_result="> 0"
compound=CCCN(CCC)S(=O)(=O)c1ccc(C(=O)O)cc1 endpoint_result="> 0"
compound="CC(C)(C)c1ccc(C(O)CCCN2CCC(C(O)(c3ccccc3)c3ccccc3)CC2)cc1 (stereo not shown)" endpoint_result="< 0"

###

// reported pKa per item
experiment: physchem; conditions: pH 3, pKa (I = 0.020M)
observable: pKa

molecule="O=S(=O)(O)CCN1CCOCC1 [MES monohydrate, 4-morpholine-ethanesulfonic acid]" observable=pKa endpoint_result=6.08
molecule=OB(O)O observable=pKa endpoint_result=9.13
